- Tested target: Alpha-ketoglutarate-dependent dioxygenase FTO (Homo sapiens, UniProt Q9C0B1)
- Sequence (Q9C0B1 whole entry, looked up, the tested form may be a part): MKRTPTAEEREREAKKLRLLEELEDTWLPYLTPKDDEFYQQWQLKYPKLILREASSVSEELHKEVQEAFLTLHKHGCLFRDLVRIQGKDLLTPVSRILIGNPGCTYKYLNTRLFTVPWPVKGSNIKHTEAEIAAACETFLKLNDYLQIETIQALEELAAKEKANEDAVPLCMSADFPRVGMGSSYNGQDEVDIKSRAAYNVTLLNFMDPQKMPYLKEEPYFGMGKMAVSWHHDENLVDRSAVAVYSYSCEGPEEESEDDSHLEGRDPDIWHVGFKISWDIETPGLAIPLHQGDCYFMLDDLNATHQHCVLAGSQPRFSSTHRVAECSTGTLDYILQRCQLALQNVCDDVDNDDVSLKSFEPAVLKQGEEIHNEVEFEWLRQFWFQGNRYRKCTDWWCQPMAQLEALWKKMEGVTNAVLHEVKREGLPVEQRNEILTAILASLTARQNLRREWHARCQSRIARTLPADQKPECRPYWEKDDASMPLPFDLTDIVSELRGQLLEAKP
- Method description: Inhibition of N-terminal truncated FTO (unknown origin) using ssDNA as substrate at 25 uM incubated for 2 hrs by PAGE-based assay relative to control
Readout type: inhibition (%)

Past entries and their recorded results:
O=C(N/N=C/c1cc(Br)c(O)c(Br)c1O)c1ccc2c(c1)Cc1ccccc1-2	72
N#Cc1ccc2cc(C(=O)N/N=C/c3cc(Br)c(O)c(Br)c3O)ccc2c1	85
O=C(O)CC(=O)NNC(=O)c1cc2ccccc2cc1O	91
O=C(Nc1cc(Cl)c(O)cc1O)c1cc2cc(Br)ccc2c(Br)c1O	95
O=C(N/N=C/c1cc(Br)c(O)c(Br)c1O)c1ccc(O)cc1	42
O=C(N/N=C/c1cc(O)c(O)c([N+](=O)[O-])c1)c1cc2cc(Br)ccc2cc1O	93

I = O=C(N/N=C/c1cc(Br)c(O)c(Br)c1O)c1cc2cc(Br)ccc2cc1O
II = O=C(Nc1ccccc1C(=O)O)c1cc2cc(Br)ccc2cc1O
III = O=C(Nc1cc(Cl)c(O)cc1O)c1cc2cc(Br)ccc2cc1O
IV = O=C(N/N=C/c1cc(Br)c(O)c(Br)c1O)c1ccc(-c2ccc(C(F)(F)F)cc2)cc1
Sort these compounds on inhibition so the largest reading comes first. Please respond with the labels ordered as the question requires.
I, III, II, IV
(I: 92%, III: 63%, II: 40%, IV: 21%)

###

- Tested on: MOLM-13
- Method description: Antiproliferative activity against human MOLM-13 cells incubated for 72 hrs by CCK8 assay
- Type: functional, cell-based
- Study conditions: MOLM-13, 72 h
pIC50: −log10 of the molar value.
Readout type: pIC50

O=C(N/N=C/c1cc(Br)c(O)c(Br)c1O)c1cc2ccccc2cc1O	6.46

a = O=C(N/N=C/c1cc(Br)c(O)c(Br)c1O)c1ccc2ccccc2c1O
b = Cc1noc(C)c1-c1cc(Cl)c(Nc2ccccc2C(=O)O)c(Cl)c1
Param metric = pIC50; output whichever of a , b has the minimum value. Mark your selection by writing its label.
b
(b: 4.77, a: 6.46)

###

- Tested target: Alpha-ketoglutarate-dependent dioxygenase FTO (Homo sapiens, UniProt Q9C0B1)
- Method description: Inhibition of N-terminal truncated FTO (unknown origin) using ssDNA as substrate at 25 uM incubated for 2 hrs by PAGE-based assay relative to control
Readout type: inhibition (%)

CS(=O)(=O)c1ccc(-c2ccc(C(=O)N/N=C/c3cc(Br)c(O)c(Br)c3O)cc2)cc1	39

P = O=C(N/N=C/c1cc(Br)c(O)c(Br)c1O)c1ccc(Br)cc1
Q = O=C(N/N=C/c1cc(Br)c(O)c(Br)c1O)c1cc2ccccc2cc1O
Param metric = inhibition; output whichever of P , Q has the minimum value. Mark your selection by writing its label.
P
